These measurements were taken from patent EP0845478B1.

Assay: Solubility of the starting glycopeptide antibiotic (nucleus) in methanol in the presence of the copper salt, with pH
Assay type: physicochemical
Settings: Glycopeptide nucleus (0.55 g, 0.26 mmol) added to copper salt (0.165 mmol) in 50 mL methanol, stirred 15 min
attribute.measured: nucleus solubility in presence of salt

• [Br][Cu][Br] = soluble, clear purple
• [Cl][Cu][Cl] = slightly, cloudy purple
• O.O.O.O.O.O=S(=O)([O-])[O-].[Cu+2] = slightly, cloudy purple
• O=C([O-])C(F)(F)F.O=C([O-])C(F)(F)F.[Cu+2] = soluble, clear purple

###

Experiment: Solubility of copper salts in methanol, with pH
Type: physicochemical
Settings: copper salt (0.165 mmol) in 50 mL methanol, stirred at ambient temperature for 15 min
attribute.measured: Salt Solubility in MeOH

• [Cl][Cu][Cl] [CuCl2] = soluble, clear colorless
• O.O.O.O.O.O=S(=O)([O-])[O-].[Cu+2] [CuSO4·5H2O] = soluble, clear colorless

###

Parameter pH: see the listing below.
Assay: Solubility of copper salts in methanol, with pH
Type: physicochemical
Details: pH of copper salt (0.165 mmol) in 50 mL methanol after 15 min stirring, before nucleus is added
Just the number.

Task item: Tell me the measured pH of O=C([O-])C(F)(F)F.O=C([O-])C(F)(F)F.[Cu+2] , please.
Reply: 4.4

###

Parameter pH: see the listing below.
Assay: Solubility of the starting glycopeptide antibiotic (nucleus) in methanol in the presence of the copper salt, with pH
Format: physicochemical
Details: pH after addition of glycopeptide nucleus (0.26 mmol) to copper salt in 50 mL methanol, stirred 15 min
Just the number.

Some compounds with recorded pH:
• [Cu+2].[OH-].[OH-] [Cu(OH)2] = 7.0
• O.O.O.O.O.O=S(=O)([O-])[O-].[Cu+2] [CuSO4·5H2O] = 6.2
• [Br][Cu][Br] [CuBr2] = 5.9
• O=C([O-])C(F)(F)F.O=C([O-])C(F)(F)F.[Cu+2] [Cu(O2CCF3)2] = 6.2
• [F][Cu][F] [CuF2] = 7.0

Then this compound:
Task item: Tell me the measured pH of [Cl][Cu][Cl] [CuCl2] , please.
Reply: 6.6

###

Experiment: Solubility of copper salts in methanol, with pH
Format: physicochemical
Conditions: pH of copper salt (0.165 mmol) in 50 mL methanol after 15 min stirring, before nucleus is added
Kindly return met if reported pH is no lower than 6; return not met if it is lower.

Look over these answered cases.
• [Cu+2].[OH-].[OH-] = met
• [Br][Cu][Br] = not met
• CC(=O)[O-].CC(=O)[O-].[Cu+2] = met
• [Cl][Cu][Cl] = not met

Task item: Does the molecule O.O.O.O.O.O=S(=O)([O-])[O-].[Cu+2] have recorded pH that is 6 or more?
Reply: not met

Task item: Does the molecule CCCCC(CC)C(=O)[O-].CCCCC(CC)C(=O)[O-].[Cu+2] (centres unmarked) [Cu(2-ethylhexanoate)2] have recorded pH that is 6 or more?
Reply: met

###

Experiment: Solubility of the starting glycopeptide antibiotic (nucleus) in methanol in the presence of the copper salt, with pH
Assay type: physicochemical
Details: pH after addition of glycopeptide nucleus (0.26 mmol) to copper salt in 50 mL methanol, stirred 15 min
attribute.measured: pH

Some compounds with recorded pH:
• CCCCC(CC)C(=O)[O-].CCCCC(CC)C(=O)[O-].[Cu+2] (stereo not drawn) [Cu(2-ethylhexanoate)2] = ~6.7
• O=C([O-])CCCC1CCCCC1.O=C([O-])CCCC1CCCCC1.[Cu+2] [Cu(cyclohexanebutyrate)2] = ~6.7

Task item: Tell me the measured pH of CC(=O)[O-].CC(=O)[O-].[Cu+2] , please.
Reply: ~6.7
